// provenance: patent US20260132208A1

systemName: T1, human CCR8 (human, UniProt P51685 1-355)
T1 construct: also called hCCR8; CC chemokine receptor 8
measurementNotes: flow cytometry, hCCR8-transfected CHO-K1 cells
measurementKind: MFI fold change to isotype ctrl (fold)
Supply the numeric figure in fold, leaving out any unit text.

// known answers, use as guide
binder | unitsLabel | MFI fold change to isotype ctrl
anti-CCR8 mAb 1-9 (antibody, V domains shown, Murine hybridoma mAb) VH: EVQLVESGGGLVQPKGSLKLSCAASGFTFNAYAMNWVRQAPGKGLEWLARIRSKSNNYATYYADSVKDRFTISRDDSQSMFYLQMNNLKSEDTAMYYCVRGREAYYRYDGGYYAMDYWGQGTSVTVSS VL: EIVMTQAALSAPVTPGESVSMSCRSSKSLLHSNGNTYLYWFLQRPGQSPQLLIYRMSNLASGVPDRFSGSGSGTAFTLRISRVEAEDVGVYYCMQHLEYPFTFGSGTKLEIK | fold | 16.2
anti-CCR8 mAb 1-5 (antibody, V domains shown, Murine hybridoma mAb) VH: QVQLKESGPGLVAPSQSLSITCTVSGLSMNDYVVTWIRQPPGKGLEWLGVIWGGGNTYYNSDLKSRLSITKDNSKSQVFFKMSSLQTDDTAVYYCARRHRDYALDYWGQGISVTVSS VL: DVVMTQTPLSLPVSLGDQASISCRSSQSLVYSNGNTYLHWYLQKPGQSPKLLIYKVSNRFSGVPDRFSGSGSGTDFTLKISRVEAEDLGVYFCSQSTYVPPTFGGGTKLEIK | fold | 11.9

Prompt: Recorded MFI fold change to isotype ctrl for anti-CCR8 mAb 1-15 (antibody, V domains shown, Murine hybridoma mAb) VH: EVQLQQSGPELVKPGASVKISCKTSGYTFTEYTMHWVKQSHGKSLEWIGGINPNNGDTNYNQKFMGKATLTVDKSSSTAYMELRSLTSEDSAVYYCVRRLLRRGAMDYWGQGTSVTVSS VL: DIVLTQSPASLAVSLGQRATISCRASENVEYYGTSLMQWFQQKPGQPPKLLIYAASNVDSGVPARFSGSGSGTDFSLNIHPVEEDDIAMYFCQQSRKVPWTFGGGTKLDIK , please?
Completion: 6.52
